Data provenance: patent US11999727B2

target: PRMT5 (Homo sapiens, UniProt O14744); construct: purchased Viva (custom protein); experiment: PRMT5 biochemical IC50 assay with MTA as cofactor; conditions: PRMT5, MTA as cofactor; read-out: MTA IC50
Sequence (O14744 whole entry): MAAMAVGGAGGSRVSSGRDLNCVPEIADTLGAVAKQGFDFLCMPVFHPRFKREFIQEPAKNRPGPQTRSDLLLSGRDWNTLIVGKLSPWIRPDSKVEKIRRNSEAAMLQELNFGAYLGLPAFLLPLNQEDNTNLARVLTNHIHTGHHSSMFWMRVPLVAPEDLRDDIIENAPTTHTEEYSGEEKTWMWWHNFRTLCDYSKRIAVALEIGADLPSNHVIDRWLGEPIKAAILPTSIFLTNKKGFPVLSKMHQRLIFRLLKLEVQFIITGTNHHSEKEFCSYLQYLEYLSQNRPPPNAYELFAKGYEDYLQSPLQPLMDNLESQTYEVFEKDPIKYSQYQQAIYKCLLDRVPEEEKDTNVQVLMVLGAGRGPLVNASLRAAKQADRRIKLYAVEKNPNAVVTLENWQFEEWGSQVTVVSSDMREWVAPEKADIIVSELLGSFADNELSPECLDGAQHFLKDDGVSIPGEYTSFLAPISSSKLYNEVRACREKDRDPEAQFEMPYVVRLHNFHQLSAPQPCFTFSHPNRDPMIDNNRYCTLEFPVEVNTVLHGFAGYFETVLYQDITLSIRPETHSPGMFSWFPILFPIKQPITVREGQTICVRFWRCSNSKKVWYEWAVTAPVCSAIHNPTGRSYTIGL
Sequence (Q9BQA1 whole entry partner): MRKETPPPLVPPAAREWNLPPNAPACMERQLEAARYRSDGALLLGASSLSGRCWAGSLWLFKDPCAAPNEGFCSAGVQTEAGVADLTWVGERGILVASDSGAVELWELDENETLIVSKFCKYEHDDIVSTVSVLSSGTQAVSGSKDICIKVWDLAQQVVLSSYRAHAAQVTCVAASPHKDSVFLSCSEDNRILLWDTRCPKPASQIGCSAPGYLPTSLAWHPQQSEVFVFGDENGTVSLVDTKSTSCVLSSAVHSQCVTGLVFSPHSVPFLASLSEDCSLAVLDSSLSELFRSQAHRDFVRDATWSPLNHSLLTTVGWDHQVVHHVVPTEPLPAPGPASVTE
Readout Name: IC50

>>> assay_result("COc1ncc(NC(=O)C(=O)N2C[C@@H](C)CC[C@@H]2c2ccc(N)nc2)cc1C(N)=O (single isomer, unassigned)")
"< 50 nM"
>>> assay_result("C[C@H]1CC[C@@H](c2ccc(O)nc2)N(C(=O)C(=O)Nc2cncc(C(N)=O)c2)C1 (single isomer, unassigned)")
"> 500 nM"
>>> assay_result("C[C@@H]1CC[C@@H](c2cccc(C(F)(F)F)c2)N(C(=O)C(=O)Nc2cncc(C(N)=O)c2)C1 (single isomer, unassigned) [Compound 510]")
"> 500 nM"
>>> assay_result("Cc1nc2cc([C@@H]3CC[C@@H](C)CN3C(=O)C(=O)Nc3cnc(N)c(C)c3)ccc2[nH]1 (single isomer, unassigned)")
"> 500 nM"
>>> assay_result("COc1ncc(NC(=O)C(=O)N2C[C@H](C)CC[C@H]2c2ccc(C)cn2)cc1C(N)=O (racemic)")
"50 to 500 nM"
>>> assay_result("Cc1cc(NC(=O)C(=O)N2C[C@@H](C)[C@@H](C)C[C@H]2c2ccccc2)cnc1N (single isomer, unassigned)")
"50 to 500 nM"

###

biological target: PRMT5 (Homo sapiens, UniProt O14744); construct: purchased Viva (custom protein); assay: PRMT5 biochemical IC50 assay with MTA as cofactor; details: PRMT5, MTA as cofactor; read-out: MTA IC50
The following compounds are listed with their measured IC50 values.
Readout Name: IC50

>>> assay_result("Cc1cc(NC(=O)C(=O)N2C[C@@H]3CC[C@@H](C3)[C@@H]2c2cccs2)cnc1N (single isomer, unassigned)")
"< 50 nM"
>>> assay_result("COc1ncc(NC(=O)C(=O)N2C[C@H](C)CC[C@@H]2c2ccccc2)cc1C(N)=O (single isomer, unassigned)")
"< 50 nM"
>>> assay_result("CCc1cc(NC(=O)C(=O)N2C[C@@H](C)CC[C@@H]2c2cccc(CCN(C)C)c2)cnc1N")
"< 50 nM"
>>> assay_result("CCc1cc(NC(=O)C(=O)N2C[C@@H](C)CC[C@@H]2c2cccc(OCCN(C)C)c2)cnc1N")
"< 50 nM"
>>> assay_result("C[C@@H]1CC[C@@H](c2ccc3[nH]c(=O)ccc3c2)N(C(=O)C(=O)Nc2cncc(C(N)=O)c2)C1 (racemic) [Compound 670]")
"< 50 nM"
>>> assay_result("COc1ncc(NC(=O)C(=O)N2C[C@@H](C)CC[C@H]2c2ccccc2)cc1C(N)=O (single isomer, unassigned)")
"> 500 nM"
>>> assay_result("Cc1cc(NC(=O)C(=O)N2C[C@H](C)CC[C@H]2C2CCN(C)CC2)cnc1N (racemic)")
"> 500 nM"
>>> assay_result("Cc1cc(NC(=O)C(=O)N2C[C@H](C)C[C@@H](F)[C@H]2c2ccc(F)cc2)cnc1N (racemic)")
"50 to 500 nM"
>>> assay_result("COc1ncc(NC(=O)C(=O)N2C[C@@H](C)CC[C@@H]2c2ccc(NC(C)=O)nc2)cc1C(N)=O (single isomer, unassigned)")
"> 500 nM"
>>> assay_result("CCc1cc(NC(=O)C(=O)N2C[C@@H](C)CC[C@@H]2c2ccc3sc([C@H]4CN(C)C(=O)CN4C)nc3c2)cnc1N")
"< 50 nM"
>>> assay_result("Cc1cncc(NC(=O)C(=O)N2C[C@H](C)CC[C@H]2c2ccc(C)c(C)c2)c1 (single isomer, unassigned)")
"50 to 500 nM"
>>> assay_result("NC(=O)c1cncc(NC(=O)C(=O)N2CCCCC2C2CCC2)c1 (stereo not shown)")
"< 50 nM"
>>> assay_result("Cc1cc(NC(=O)C(=O)N2C[C@@H](C)CC[C@@H]2c2ccc3cc[nH]c(=O)c3c2)cnc1N (single isomer, unassigned)")
"> 500 nM"

###

target: PRMT5 (Homo sapiens, UniProt O14744); construct: purchased Viva (custom protein); experiment: PRMT5 biochemical IC50 assay with SAM as cofactor; details: PRMT5, SAM as cofactor; read-out: SAM IC50
pIC50: −log10 of the molar value.
Readout Name: pIC50

>>> assay_result("CCc1cc(NC(=O)C(=O)N2C[C@@H](C)[C@@H](OC)C[C@@H]2c2ccc3scnc3c2)cnc1N (single isomer, unassigned)")
"6.30 to 7.30"
>>> assay_result("CCc1cc(NC(=O)C(=O)N2C[C@@H](C)CC[C@@H]2c2ccc3sc(CO)nc3c2)cnc1N")
"6.30 to 7.30"
>>> assay_result("COc1ncc(NC(=O)C(=O)N2C[C@H](C)CC[C@H]2C2CCCC2)cc1C(N)=O (single isomer, unassigned)")
"6.30 to 7.30"
>>> assay_result("C[C@H]1CC[C@H](c2ccc(F)cc2)N(C(=O)C(=O)Nc2cnc(N)c(OC(F)F)c2)C1")
"6.30 to 7.30"
>>> assay_result("COc1ncc(NC(=O)C(=O)N2C[C@@H](C)CC[C@@H]2c2ccc(NC(C)=O)cc2)cc1C(N)=O (single isomer, unassigned)")
"< 6.30"
>>> assay_result("COc1cc([C@@H]2CC[C@@H](C)CN2C(=O)C(=O)Nc2cncc(C(N)=O)c2)ccc1Cl (racemic)")
"6.30 to 7.30"
>>> assay_result("Cc1cc(NC(=O)C(=O)N2C[C@H](C)CC[C@H]2c2ccc(S(N)(=O)=O)cc2)cnc1N (racemic)")
"6.30 to 7.30"
>>> assay_result("C[C@H]1CC[C@H](c2ccc(F)cc2)N(C(=O)C(=O)Nc2cnc(OC(F)(F)F)c(C(N)=O)c2)C1")
"6.30 to 7.30"
>>> assay_result("NC(=O)c1cncc(NC(=O)C(=O)N2C[C@@H]3CC[C@@H](C3)[C@@H]2c2cccs2)c1 (racemic)")
"6.30 to 7.30"
>>> assay_result("Cc1cc(NC(=O)C(=O)N2C[C@H](C)CC[C@H]2c2ccc(N3CCN(C)CC3)cc2)cnc1N (racemic) [Compound 1105]")
"6.30 to 7.30"
>>> assay_result("Cc1cc(NC(=O)C(=O)N2C[C@@H](C)CC[C@@H]2c2ccc3c(c2)CNC3=O)cnc1N (single isomer, unassigned)")
"< 6.30"
>>> assay_result("NC(=O)c1cncc(NC(=O)C(=O)N2CCC3CCCCCC3C2)c1 (racemic)")
"6.30 to 7.30"
>>> assay_result("Cc1cc(NC(=O)C(=O)N2C[C@@H](C)CC[C@@H]2c2cccc3[nH]ccc23)cnc1N (single isomer, unassigned)")
"< 6.30"

###

List of pIC50 values.
system: HAP1 MTAP-deleted cell line; assay: Viability assay, MTAP-deleted cell line; type: cell-based; conditions: Homo sapiens, HAP1, viability assay, MTAP-deleted cell line; read-out: HAP1 MTAP deleted viability
pIC50: −log10 of the molar value.
Readout Name: pIC50

>>> assay_result("CCc1cc(NC(=O)C(=O)N2C[C@@H](C)CC[C@@H]2c2ccc3cn(C4CCN(C)CC4)nc3c2)cnc1N (racemic)")
"> 6.00"
>>> assay_result("Cc1cc(NC(=O)C(=O)N2CC(C)CCC2C2CNC(=O)C2)cnc1N (stereo not shown)")
"< 5.00"
>>> assay_result("COc1ncc(NC(=O)C(=O)N2C[C@H](C)CC[C@H]2c2ccc(NS(C)(=O)=O)nc2)cc1C(N)=O (single isomer, unassigned)")
"5.00 to 6.00"
>>> assay_result("C[C@@H]1CC[C@@H](c2ccc3c(c2)CCCO3)N(C(=O)C(=O)Nc2cncc(C(N)=O)c2)C1 (racemic)")
"5.00 to 6.00"

###

system: HAP1 MTAP-deleted cell line; assay: Viability assay, MTAP-deleted cell line; type: cell-based; settings: Homo sapiens, HAP1, viability assay, MTAP-deleted cell line; read-out: HAP1 MTAP deleted viability
pIC50: −log10 of the molar value.
Item-by-item account of pIC50
Readout Name: pIC50

>>> assay_result("C[C@H]1CC[C@H](c2cc(F)c(F)c(F)c2)N(C(=O)C(=O)Nc2cncc(C(N)=O)c2)C1 (single isomer, unassigned)")
"5.00 to 6.00"
>>> assay_result("CCc1cc(NC(=O)C(=O)N2C[C@@H](C)CC[C@@H]2c2ccc3sc(CO)nc3c2)cnc1N")
"> 6.00"
>>> assay_result("C[C@H]1C[C@H](C)[C@H](c2ccccc2)N(C(=O)C(=O)Nc2cncc(C(N)=O)c2)C1 (single isomer, unassigned)")
"5.00 to 6.00"
>>> assay_result("Cc1cc(NC(=O)C(=O)N2C[C@H](C)CC[C@H]2c2cncc(Cl)c2)cnc1N (racemic)")
"5.00 to 6.00"
>>> assay_result("C[C@H]1CC[C@H](c2ccc3sc(C(F)(F)F)nc3c2)N(C(=O)C(=O)Nc2cncc(C(N)=O)c2)C1 (single isomer, unassigned)")
"> 6.00"
>>> assay_result("Cc1c(NC(=O)C(=O)N2C[C@H](C)CC[C@H]2c2ccccc2)cnc(N)c1C (single isomer, unassigned)")
"< 5.00"
>>> assay_result("C[C@@H]1CC[C@@H](c2ccc3sc(N)nc3c2)N(C(=O)C(=O)Nc2cncc(C(N)=O)c2)C1 (single isomer, unassigned)")
"< 5.00"
>>> assay_result("Cc1cc(NC(=O)C(=O)N2C[C@@H](C)C(F)(F)C[C@@H]2c2cccc3[nH]ncc23)cnc1N (single isomer, unassigned)")
"< 5.00"
>>> assay_result("Cc1ncc(NC(=O)C(=O)N2C[C@H](C)CC[C@H]2c2ccccc2)cc1C(N)=O (single isomer, unassigned)")
"< 5.00"
>>> assay_result("Cc1cc(NC(=O)C(=O)N2C[C@H](C)CC[C@@H]2c2ccnn2C)cnc1N (racemic)")
"< 5.00"
>>> assay_result("CCc1cc(NC(=O)C(=O)N2C[C@H](C)CC[C@H]2c2ccc(N3CCOC4(CN(C)C4)C3)cc2)cnc1N (single isomer, unassigned)")
"< 5.00"
>>> assay_result("CCc1cc(NC(=O)C(=O)N2C[C@@H](C)CC[C@@H]2c2ccc(N3CCN(C)CC3)nc2)cnc1N (single isomer, unassigned)")
"> 6.00"
>>> assay_result("Cc1cc(NC(=O)C(=O)N2C[C@H](C)CC[C@H]2c2ccc(C(C)O)cc2)cnc1N (mixture of isomers)")
"5.00 to 6.00"
>>> assay_result("CCc1cc(NC(=O)C(=O)N2C[C@@H](C)CC[C@@H]2c2cc3[nH]ncc3s2)cnc1N (single isomer, unassigned)")
"< 5.00"
>>> assay_result("Cc1cc(NC(=O)C(=O)N2C[C@H](C)C[C@@H](F)[C@H]2c2ccc(F)cc2)cnc1N (racemic)")
"5.00 to 6.00"
>>> assay_result("Cc1cc(NC(=O)C(=O)N2C[C@H](C)CC[C@H]2c2ccc3cc[nH]c(=O)c3c2)cnc1N (single isomer, unassigned)")
"> 6.00"
>>> assay_result("CCc1ccc([C@H]2CC[C@H](C)CN2C(=O)C(=O)Nc2cnc(N)c(C)c2)cn1 (single isomer, unassigned)")
"< 5.00"
>>> assay_result("CCc1cc(NC(=O)C(=O)N2C[C@H](C)[C@H](OC)C[C@H]2c2ccc(N3CCN(C)CC3)cc2)cnc1N (single isomer, unassigned)")
"> 6.00"
>>> assay_result("Cc1cc(NC(=O)C(=O)N2C[C@@H](C)CC[C@@H]2[C@H]2CC[C@@H](C(C)(C)C)CC2)cnc1N (single isomer, unassigned)")
"< 5.00"
>>> assay_result("CCc1cc(NC(=O)C(=O)N2C[C@@H](C)[C@@H](OC)C[C@@H]2c2cccc(OCCN(C)C)c2)cnc1N (racemic)")
"> 6.00"
>>> assay_result("CCc1cc(NC(=O)C(=O)N2C[C@@H](C)CC[C@@H]2c2ccc(NC(C)=O)nc2)cnc1N (single isomer, unassigned)")
"> 6.00"
>>> assay_result("COc1ccc([C@@H]2CC[C@@H](C)CN2C(=O)C(=O)Nc2cncc(C(N)=O)c2)cc1C#N (racemic)")
"< 5.00"
>>> assay_result("COc1cc([C@@H]2CC[C@@H](C)CN2C(=O)C(=O)Nc2cncc(C(N)=O)c2)cnc1C(F)(F)F (racemic)")
"< 5.00"
>>> assay_result("CC(=O)Nc1ccc([C@@H]2CC[C@@H](C)CN2C(=O)C(=O)Nc2cnc(N)c(C)c2)cc1 (single isomer, unassigned)")
"> 6.00"
>>> assay_result("Cc1cc(NC(=O)C(=O)N2C[C@H](C)CC[C@H]2C)cnc1N (racemic)")
"< 5.00"
